assay: Metabolic stability in rat liver microsomes assessed as parent compound remaining after 30 mins; assay type: ADME, Microsome; conditions: read-out: Stability
RECORDED ENDPOINT: remaining at 0.5 h (%)

COMPOUND STRUCTURE STRING	RECORDED ENDPOINT	EXPERIMENTAL RESULT
CCN(C(=O)/C=C/c1cccc([N+](=O)[O-])c1)c1ccccc1	remaining at 0.5 h	32
CSc1cc(-c2ccc(Cl)cc2)[nH]n1	remaining at 0.5 h	41

[a] COc1cccc(NS(=O)(=O)c2c(C)cc(C)c([N+](=O)[O-])c2C)c1
[b] COC(=O)c1sc(-c2ccccc2)nc1O
Exercise: # query: argmin of remaining at 0.5 h over a and b Identify your selection by its label.
Solution: a
(a: 29%, b: 42%)
